Can you tell me composite z-score for the items I'm about to list?
ASSAY_COMMENT: small-molecule binders of probe aLefty1, primary screen, biochemical, small-molecule microarray, 635/667 nm fluorescence (AID 1153);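 further: score merges spot fluorescence with signal-to-noise ratio from the scanned slide images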
CONDITIONS_USED: higher = more signal
Please state the value as a number alone, without comment.

Report composite z-score, nothing else, for this compound: C=CCC(OC(C)=O)[C@@H]1[C@@H](N(Cc2ccc(-c3ccccc3)cc2)C(=O)c2ccc(-c3ccccc3)cc2)c2cc(OCCCO)ccc2N1C(=O)c1ccc2ccccc2n1 (stereo not given in full)
0.026

Output composite z-score of Cc1ccccc1C(O)C1C=CC2C(=O)N(c3ccccc3)C(=O)C2N1Nc1ccccc1F (stereo not given)
0.649

# return recorded composite z-score for entry C#CCN=C(N)N
-0.214

Please report the measured composite z-score for COc1ccc(CC[C@H](O)c2cccc(OCC(=O)OC(C)(C)C)c2)cc1
0.163

Look up and report measured composite z-score for this entry: [N-]=[N+]=NCc1ccccc1C[C@]1(C(=O)N2CCCCC2)N=C(c2ccc(OCCCO)cc2)O[C@H]1c1ccccc1
0.118

Name the recorded composite z-score of the compound listed here: C=CCN1C(=O)[C@]2(O[C@H](CCn3cc([C@H](O)c4ccccc4)nn3)[C@@H]([Si](C)(C)c3ccc(OC)cc3)[C@@H]2C)c2cc(N3C(=O)c4cccc5cccc3c45)ccc21
-0.101

Specify reported composite z-score for the compound shown: COCCOC(=O)N1C(=O)[C@@]2(c3cc(C#CC4=CCCCC4)ccc31)[C@H](C(=O)N1CCc3cc(OC)c(OC)cc3C1)[C@H]1C(=O)O[C@H](c3ccccc3)[C@H](c3ccccc3)N1[C@@H]2c1ccc(O)cc1
0.679

Give me measured composite z-score, please, for this compound: C=CCOC(=O)[C@H]1[C@@H]2C(=O)O[C@@H](c3ccccc3)[C@@H](c3ccccc3)N2[C@@H](c2ccc(OCCOC(=O)[C@@H]3C[C@@H]4C(=O)N[C@@H](Cc5ccccc5)C(=O)N4[C@@H]3c3ccc(O)cc3)cc2)[C@]12C(=O)Nc1ccccc12
-0.0235

Kindly indicate its recorded composite z-score. Item: O=c1cccc(-c2ccccc2C(F)(F)F)o1
0.69

Return composite z-score for the following compound: COc1ccc(C(O)C2C=CC3C(=O)N(C)C(=O)C3N2Nc2ccc([N+](=O)[O-])cc2[N+](=O)[O-])cc1OCc1ccccc1 (stereo not given)
0.703

Note composite z-score for the compound shown: COCCOC(=O)N1C(=O)[C@@]2(c3ccccc31)[C@H](C(N)=O)[C@H]1C(=O)O[C@H](c3ccccc3)[C@H](c3ccccc3)N1[C@@H]2c1ccc(OCCO)cc1
0.196

Give composite z-score for the following compound: CN(C)CCCC[C@@H]1NC(=O)[C@H]2C[C@@H](C(=O)NCc3ccc(F)cc3)[C@@H](c3ccc(O)cc3)N2C1=O
0.364

Provide measured composite z-score value, entry: COCC(=C=CC[C@@H](O)c1ccc(OCCO)cc1)C[C@@H](O)COCc1ccccc1
0.0299

Look up and state reported composite z-score for CC(C)(C)N1CC=CC23O[C@@H]4/C=C\CCCOC(=O)C4[C@H]2C(=O)N(CCCCCCO)[C@@H]3C1=O (stereo not given in full)
0.0903

Determine its reported composite z-score: CC(C)CNC(=O)[C@@H]1c2ccccc2C(=O)N(C2Cc3ccccc3C2)[C@H]1c1ccc(CO)cc1
0.0861
